Tested on: NUGC-3, gastric cancer cell line with a TP53 Y220C mutation
Test: MTT cell proliferation assay
Assay type: cell-based, human
Conditions: Homo sapiens, NUGC-3, 120 h, Table 3; NUGC-3 cells, five days incubation
pIC50: −log10 of the molar value.
property: pIC50

Look at this compound and give its reported pIC50. COc1cc(C(=O)NCC(O)CO)ccc1NCC#Cc1cc2c(N[C@@H]3CCN(C)C[C@@H]3F)cccc2n1CC(F)(F)F (stereo partly shown) 6.24

Would you kindly repeat that for COc1cc(C(=O)O)ccc1NCC#Cc1cc2c(N[C@@H]3CCN(C)C[C@@H]3F)cccc2n1CC(F)(F)F ? 6.00

Would you kindly repeat that for CNC(=O)c1ccc(NCC#Cc2cc3c(N[C@@H]4CCN(C)C[C@@H]4F)cccc3n2CC(F)(F)F)c(OC)c1 ? 6.30

A. COc1cc(C(N)=O)ccc1NCC#Cc1cc2c(N[C@@H]3CCN(C)C[C@@H]3F)cccc2n1CC(F)(F)F
B. COc1cc(C(=O)N2CCN(C)CC2)ccc1NCC#Cc1cc2c(N[C@@H]3CCN(C)C[C@@H]3F)cccc2n1CC(F)(F)F
C. COc1cc(S(N)(=O)=O)ccc1NCC#Cc1cc2c(N[C@@H]3CCN(C)C[C@@H]3F)cccc2n1CC(F)(F)F
Order the records by pIC50, with each subsequent value no larger than the one before. Reply with the labels, ordered as the question asks. C, A, B

----------
Target: recombinant His-tag Y220C p53 DNA binding domain (Homo sapiens, UniProt P04637, Y220C)
Construct: Y220C p53 DBD protein (amino acids #94-312); made in house
Assay: TR-FRET DNA binding assay (SC150)
Type: biochemical
Settings: Table 1; concentration required to increase DNA binding by 1.5-fold
property: SC150 (µM)

These solved cases illustrate the format of a correct answer.
# query: SC150 | item CN1CCC(Nc2cccc3c2cc(C#CCNc2ccc(S(C)(=O)=O)cc2OC(F)(F)F)n3CC(F)(F)F)CC1 | system: recombinant His-tag Y220C p53 DNA binding domain (Homo sapiens, UniProt P04637, Y220C) 0.030

Would you kindly repeat that for COc1cc(S(C)(=O)=O)ccc1NCC#Cc1cc2c(NC3CCN(C)CC3)cccc2n1CC(F)(F)F ? 0.023

Would you kindly repeat that for Cc1cc(S(C)(=O)=O)ccc1NCC#Cc1cc2c(NC3CCN(C)CC3)cccc2n1CC(F)(F)F ? 0.030

A. CCn1c(C#CCNc2ccccc2)cc2cc(CNC)ccc21
B. CCn1c(C#CCNc2ccccc2)cc2cc(CNC3CCOCC3)ccc21
C. CCn1c(C#CCNc2ccc(C)nc2)cc2cc(CNC3CCOCC3)ccc21
Could you please order the items by SC150, going from the lowest number to the highest? Reply with the labels, ordered as the question asks. C, A, B
(C: 6.3 µM, A: 13.6 µM, B: 26.5 µM)

----------
Test system: NUGC-3, gastric cancer cell line with a TP53 Y220C mutation
Experiment: MTT cell proliferation assay
Type: cell-based, human
Conditions: Homo sapiens, NUGC-3, 120 h, Table 3; NUGC-3 cells, five days incubation
property: IC50 (nM)

# query: IC50 | item COc1cc(C(=O)NC2CCOCC2)ccc1NCC#Cc1cc2c(N[C@@H]3CCN(C)C[C@@H]3F)cccc2n1CC(F)(F)F | system: NUGC-3, gastric cancer cell line with a TP53 Y220C mutation 531

I. COc1cc(C(=O)N2CC3(COC3)C2)ccc1NCC#Cc1cc2c(N[C@@H]3CCN(C)C[C@@H]3F)cccc2n1CC(F)(F)F
II. COc1cc(C(=O)NC2CCN(C)CC2)ccc1NCC#Cc1cc2c(N[C@@H]3CCN(C)C[C@@H]3F)cccc2n1CC(F)(F)F
Which record would sort first by descending IC50, I or II ? State your choice using its label. II

----------
Assay: Pharmacokinetic study in mice
Details: Table 3, PO, 50 mg/kg
property: Mouse PK Exposure Cmax (ng/mL)

These solved cases illustrate the format of a correct answer.
Look at this compound and give its reported Mouse PK Exposure Cmax. CNC(=O)c1ccc(NCC#Cc2cc3c(N[C@@H]4CCN(C)C[C@@H]4F)cccc3n2CC(F)(F)F)c(OC)c1 16600

Would you kindly repeat that for COc1cc(C(=O)NCC(O)CO)ccc1NCC#Cc1cc2c(N[C@@H]3CCN(C)C[C@@H]3F)cccc2n1CC(F)(F)F (stereo partly drawn) ? 54

I. COc1cc(C(=O)O)ccc1NCC#Cc1cc2c(N[C@@H]3CCN(C)C[C@@H]3F)cccc2n1CC(F)(F)F
II. COc1cc(C(=O)NC2CCOCC2)ccc1NCC#Cc1cc2c(N[C@@H]3CCN(C)C[C@@H]3F)cccc2n1CC(F)(F)F
III. COc1cc(C(N)=O)ccc1NCC#Cc1cc2c(N[C@@H]3CCN(C)C[C@@H]3F)cccc2n1CC(F)(F)F
IV. COc1cc(S(N)(=O)=O)ccc1NCC#Cc1cc2c(N[C@@H]3CCN(C)C[C@@H]3F)cccc2n1CC(F)(F)F
Could you please order the items by Mouse PK Exposure Cmax, going from the lowest number to the highest? Reply with the labels, ordered as the question asks. II, IV, III, I
(II: 807 ng/mL, IV: 1310 ng/mL, III: 4473 ng/mL, I: 27700 ng/mL)

----------
Biological target: recombinant His-tag Y220C p53 DNA binding domain (Homo sapiens, UniProt P04637, Y220C)
Construct: Y220C p53 DBD protein (amino acids #94-312); made in house
Assay: TR-FRET DNA binding assay (SC150)
Assay type: biochemical
Conditions: Table 3; concentration required to increase DNA binding by 1.5-fold
property: SC150 (nM)

# query: SC150 | item COc1cc(C(=O)O)ccc1NCC#Cc1cc2c(N[C@@H]3CCN(C)C[C@@H]3F)cccc2n1CC(F)(F)F | system: recombinant His-tag Y220C p53 DNA binding domain (Homo sapiens, UniProt P04637, Y220C) 11

Would you kindly repeat that for COc1cc(C(=O)NC2CCOCC2)ccc1NCC#Cc1cc2c(N[C@@H]3CCN(C)C[C@@H]3F)cccc2n1CC(F)(F)F ? 7

Would you kindly repeat that for COc1cc(S(N)(=O)=O)ccc1NCC#Cc1cc2c(N[C@@H]3CCN(C)C[C@@H]3F)cccc2n1CC(F)(F)F ? 9

a. COc1cc(C(=O)NC2CCN(C)CC2)ccc1NCC#Cc1cc2c(N[C@@H]3CCN(C)C[C@@H]3F)cccc2n1CC(F)(F)F
b. CNC(=O)c1ccc(NCC#Cc2cc3c(N[C@@H]4CCN(C)C[C@@H]4F)cccc3n2CC(F)(F)F)c(OC)c1
Which record would sort first by descending SC150, a or b ? State your choice using its label. b
(b: 9 nM, a: 5 nM)

----------
Target: recombinant His-tag Y220C p53 DNA binding domain (Homo sapiens, UniProt P04637, Y220C)
Construct: Y220C p53 DBD protein (amino acids #94-312); made in house
Assay: TR-FRET DNA binding assay (SC150)
Type: biochemical
Details: Table 1; concentration required to increase DNA binding by 1.5-fold
property: SC150 (µM)

These solved cases illustrate the format of a correct answer.
Look at this molecule and give its reported SC150. CN1CCC(Nc2cccc3c2cc(C#CCNc2ccc(S(C)(=O)=O)cc2)n3CC(F)(F)F)CC1 0.027

Would you kindly repeat that for CC(C)(C#N)c1ccc(NCC#Cc2cc3c(NC4CCOCC4)cccc3n2CC(F)(F)F)cn1 ? 0.105

a. CN1CCC(Nc2cccc3c2cc(C#CCNc2ccc(C(C)(C)C#N)nc2)n3CC(F)(F)F)CC1
b. CC(C)(C#N)c1ccc(NCC#Cc2cc3c(CNC4CCOCC4)cccc3n2CC(F)(F)F)cn1
Compare SC150: is it lower for a or for b ? State your choice using its label. a
(a: 0.054 µM, b: 1.300 µM)

----------
Assay: Half-life in human liver microsomes
Format: in vitro ADME
Conditions: read-out: half-life (T1/2)
Method: However, there was a significant improvement in potency with fluorine substitution at the hydrophobic anchor (R3 = CF3, compound 7). […] The trifluoromethyl group remained the best anchor throughout the hit expansion and drug discovery campaign. […] With the nitrogen atom in place, various polar groups were assessed, and it was determined that basic nitrogen, such as that in the piperidine ring, was preferred for maintaining the potency of the compound (R2 = S5). […]
property: half-life (min)
Lab book: enter the figure in min, no units written.

Look at this molecule and give its reported half-life. CCn1c(C#CCNc2ccccc2)cc2cc(CNC)ccc21 4

----------
Assay: Pharmacokinetic study in mice
Conditions: Table 3, PO, 50 mg/kg
property: Mouse PK Exposure AUC0-last (ng·h/mL)

These solved cases illustrate the format of a correct answer.
Look at this compound and give its reported Mouse PK Exposure AUC0-last. CNC(=O)c1ccc(NCC#Cc2cc3c(N[C@@H]4CCN(C)C[C@@H]4F)cccc3n2CC(F)(F)F)c(OC)c1 163342

Would you kindly repeat that for COc1cc(C(N)=O)ccc1NCC#Cc1cc2c(N[C@@H]3CCN(C)C[C@@H]3F)cccc2n1CC(F)(F)F ? 39774

P. COc1cc(C(=O)NC2CCOCC2)ccc1NCC#Cc1cc2c(N[C@@H]3CCN(C)C[C@@H]3F)cccc2n1CC(F)(F)F
Q. COc1cc(C(=O)O)ccc1NCC#Cc1cc2c(N[C@@H]3CCN(C)C[C@@H]3F)cccc2n1CC(F)(F)F
R. COc1cc(S(N)(=O)=O)ccc1NCC#Cc1cc2c(N[C@@H]3CCN(C)C[C@@H]3F)cccc2n1CC(F)(F)F
S. COc1cc(C(=O)NCC(O)CO)ccc1NCC#Cc1cc2c(N[C@@H]3CCN(C)C[C@@H]3F)cccc2n1CC(F)(F)F (stereo partly drawn)
Could you please order the items by Mouse PK Exposure AUC0-last, going from the lowest number to the highest? Reply with the labels, ordered as the question asks. S, P, R, Q
(S: 117 ng·h/mL, P: 3261 ng·h/mL, R: 8066 ng·h/mL, Q: 57882 ng·h/mL)
